B1: LOXL2 (parent)
chain: FSPDGPSRFRKAYKPEQPLVRLRG

Variants of: B1
test.summary: protein stability index of a GFP-peptide fusion (GPS, HEK-293T) (PSI 1-6); higher = more stable;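 note: lentivirally expressed fusions sorted by FACS into six bins by GFP to DsRed ratio, PSI derived from sequencing read proportions per bin multiplied by bin number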
condition.context: c terminus: a fixed tail appended
assay.readout: protein stability index
Output: the number by itself.

Form: variant = "L22Y" ; protein stability index = 1.75

Form: variant = "Q17W" ; protein stability index = 1.28

Form: variant = "R21P" ; protein stability index = 1.77

Form: variant = "A12C" ; protein stability index = 1.88

Form: variant = "P3M" ; protein stability index = 2.33

Form: variant = "F9H" ; protein stability index = 2.81

Form: variant = "S7T" ; protein stability index = 1.49

Form: variant = "V20W" ; protein stability index = 3.13

Form: variant = "S7A" ; protein stability index = 1

Form: variant = "P15A" ; protein stability index = 1.85

Form: variant = "P18C" ; protein stability index = 1.52

Form: variant = "S7E" ; protein stability index = 2.01

Form: variant = "V20F" ; protein stability index = 2.99

Form: variant = "R8V" ; protein stability index = 2.88

Form: variant = "R8Q" ; protein stability index = 2.42

Form: variant = "R23E" ; protein stability index = 2.46
